# Tested on: Staphylococcus aureus
# experimentSummary: Antibacterial activity against Staphylococcus aureus ATCC 25923 by MTT assay
# Format: functional
parameter: MIC50

// solved cases for MIC50 follow
1) COc1ccc(CC(=O)OCCOC2=C(c3ccccc3)C(=O)OC2)cc1OC ... > 100 mg/L
2) O=C1OCC(OCCOC(=O)c2ccc3ccccc3c2)=C1c1ccccc1 ... 21.9 mg/L
3) O=C1OCC(OCCOC(=O)c2ccc(Cl)cc2)=C1c1ccccc1 ... 17.2 mg/L
4) O=C(Cc1ccc(Br)cc1)OCCOC1=C(c2ccc(Cl)cc2)C(=O)OC1 ... 13 mg/L
5) O=C1OCC(OCCOC(=O)c2cccc(Cl)c2)=C1c1ccc(Cl)cc1 ... 2 mg/L

Ask: Entry under review: O=C1OCC(OCCOC(=O)c2ccc(Cl)c(Cl)c2)=C1c1ccccc1 . Reported MIC50?
Reply: 19.9 mg/L

Ask: Entry under review: O=C(Cc1cccc(Cl)c1)OCCOC1=C(c2ccc(Cl)cc2)C(=O)OC1 . Reported MIC50?
Reply: 5.2 mg/L

Ask: Entry under review: O=C1OCC(OCCOC(=O)c2cc(Cl)ccc2Cl)=C1c1ccccc1 . Reported MIC50?
Reply: 24.8 mg/L

Ask: Entry under review: O=C1OCC(OCCOC(=O)c2ccccc2Cl)=C1c1ccccc1 . Reported MIC50?
Reply: 72.9 mg/L

Ask: Entry under review: O=C1OCC(OCCOC(=O)c2cccc(C(F)(F)F)c2)=C1c1ccccc1 . Reported MIC50?
Reply: 17.5 mg/L

Ask: Entry under review: O=C(Cc1ccc(F)cc1)OCCOC1=C(c2ccc(Cl)cc2)C(=O)OC1 . Reported MIC50?
Reply: 14.9 mg/L

###

# Tested on: Escherichia coli
# experimentSummary: Antibacterial activity against Escherichia coli ATCC 35218 by MTT assay
# Type: functional
parameter: MIC50 (µg/mL)
Unit µg/mL implied. Number only.

// solved cases for MIC50 follow
1. O=C1OCC(OCCOC(=O)c2ccc(O)cc2)=C1c1ccccc1 ... 19.5
2. O=C(Cc1cccc(Cl)c1)OCCOC1=C(c2ccc(Cl)cc2)C(=O)OC1 ... 7.6

Ask: Entry under review: O=C(Cc1ccc(Cl)cc1)OCCOC1=C(c2ccc(Cl)cc2)C(=O)OC1 . Reported MIC50?
Reply: 45.6

Ask: Entry under review: O=C1OCC(OCCOC(=O)c2cc(Cl)ccc2Cl)=C1c1ccccc1 . Reported MIC50?
Reply: 13.9

Ask: Entry under review: O=C1OCC(OCCOC(=O)c2ccccc2O)=C1c1ccccc1 . Reported MIC50?
Reply: 15.7

Ask: Entry under review: O=C1OCC(OCCOC(=O)c2ccccc2Cl)=C1c1ccccc1 . Reported MIC50?
Reply: 17.9

Ask: Entry under review: O=C(Cc1ccc(Br)cc1)OCCOC1=C(c2ccccc2)C(=O)OC1 . Reported MIC50?
Reply: 78.7

Ask: Entry under review: O=C(Cc1cccc(Br)c1)OCCOC1=C(c2ccc(Cl)cc2)C(=O)OC1 . Reported MIC50?
Reply: 16.6

###

Attribute: MIC50
# Tested on: Escherichia coli
# experimentSummary: Antibacterial activity against Escherichia coli ATCC 35218 by MTT assay
# Type: functional
Unit µg/mL implied. Number only.

1. O=C(Cc1ccc(Br)cc1)OCCOC1=C(c2ccc(Cl)cc2)C(=O)OC1 ... 14.3
2. O=C(Cc1ccc(O)cc1)OCCOC1=C(c2ccccc2)C(=O)OC1 ... 53.6
3. O=C1OCC(OCCOC(=O)c2ccc(Cl)cc2Cl)=C1c1ccccc1 ... 12.8
4. O=C1OCC(OCCOC(=O)c2ccccc2[N+](=O)[O-])=C1c1ccccc1 ... 17.5

In the following, a different compound is considered.
Ask: Entry under review: O=C1OCC(OCCOC(=O)c2ccc(Cl)c(Cl)c2)=C1c1ccccc1 . Reported MIC50?
Reply: 2.9

###

# Tested on: Staphylococcus aureus
# experimentSummary: Antibacterial activity against Staphylococcus aureus ATCC 25923 by MTT assay
# Type: functional
parameter: log10(MIC50) (log10 of the value in µg/mL)
Transform log10 | Measure MIC50 | Unit µg/mL

// solved cases for log10(MIC50) follow
1) O=C1OCC(OCCOC(=O)c2cc(O)cc(O)c2)=C1c1ccccc1 ... 0.34
2) Cc1ccc(C(=O)OCCOC2=C(c3ccccc3)C(=O)OC2)cc1 ... 1.26
3) O=C1OCC(OCCOC(=O)c2ccc(O)cc2)=C1c1ccccc1 ... 1.37
4) O=C1OCC(OCCOC(=O)c2ccccc2[N+](=O)[O-])=C1c1ccccc1 ... 1.39

Ask: Entry under review: O=C(Cc1ccc(Br)cc1)OCCOC1=C(c2ccccc2)C(=O)OC1 . Reported log10(MIC50)?
Reply: 1.19

###

# Tested on: Escherichia coli
# experimentSummary: Antibacterial activity against Escherichia coli ATCC 35218 by MTT assay
# Format: functional
parameter: log10(MIC50) (log10 of the value in µg/mL)
Transform log10 | Measure MIC50 | Unit µg/mL

// solved cases for log10(MIC50) follow
1) O=C1OCC(OCCOC(=O)c2ccc([N+](=O)[O-])cc2)=C1c1ccccc1 ... 0.70
2) CCCCCCCC(=O)OCCOC1=C(c2ccccc2)C(=O)OC1 ... 1.69
3) NC[C@H]1O[C@H](O[C@H]2[C@H](O)[C@@H](O[C@H]3O[C@H](CO)[C@@H](O)[C@H](N)[C@H]3O)[C@H](N)C[C@@H]2N)[C@H](O)[C@@H](O)[C@@H]1O ... 0.54
4) O=C1OCC(OCCOC(=O)c2cccc(Cl)c2)=C1c1ccc(Cl)cc1 ... 0.63
5) O=C1OCC(OCCOC(=O)c2cccnc2)=C1c1ccccc1 ... 1.27

Ask: Entry under review: Cc1ccccc1C(=O)OCCOC1=C(c2ccccc2)C(=O)OC1 . Reported log10(MIC50)?
Reply: 1.29

Ask: Entry under review: O=C1OCC(OCCOC(=O)c2cccc(C(F)(F)F)c2)=C1c1ccccc1 . Reported log10(MIC50)?
Reply: 1.37

Ask: Entry under review: O=C1OCC(OCCOC(=O)c2cccc([N+](=O)[O-])c2)=C1c1ccccc1 . Reported log10(MIC50)?
Reply: 0.97

###

# Test system: Staphylococcus aureus
# experimentSummary: Antibacterial activity against Staphylococcus aureus ATCC 25923 by MTT assay
# Type: functional
Attribute: MIC50
Unit µg/mL implied. Number only.

1) CCCC(=O)OCCOC1=C(c2ccccc2)C(=O)OC1 ... 41.3
2) O=C(Cc1ccc(O)cc1)OCCOC1=C(c2ccc(Cl)cc2)C(=O)OC1 ... 27.4
3) O=C1OCC(OCCOC(=O)c2ccccc2)=C1c1ccccc1 ... 17.8

In the following, a different compound is considered.
Ask: Entry under review: O=C(Cc1ccc(Cl)cc1)OCCOC1=C(c2ccc(Cl)cc2)C(=O)OC1 . Reported MIC50?
Reply: 13.3

###

# System: Escherichia coli
# experimentSummary: Antibacterial activity against Escherichia coli ATCC 35218 by MTT assay
# Format: functional
Attribute: MIC50

// solved cases for MIC50 follow
1. Cc1cccc(C(=O)OCCOC2=C(c3ccccc3)C(=O)OC2)c1 ... > 100 µg/mL
2. O=C(Cc1cccc(Cl)c1)OCCOC1=C(c2ccccc2)C(=O)OC1 ... > 100 µg/mL

In the following, a different compound is considered.
Ask: Form: Entry = O=C(Cc1ccc(F)cc1)OCCOC1=C(c2ccc(Cl)cc2)C(=O)OC1 | System = Escherichia coli | MIC50 = ____
Reply: > 100 µg/mL

###

# Tested on: Staphylococcus aureus
# experimentSummary: Antibacterial activity against Staphylococcus aureus ATCC 25923 by MTT assay
# Type: functional
YES if MIC50 is below 20 µg/mL. NO if not; exact matches included in NO.

These solved cases illustrate the format of a correct answer.
1. O=C1OCC(OCCOC(=O)c2ccc3cc(O)ccc3c2)=C1c1ccccc1 ... YES
2. O=C1OCC(OCCOC(=O)c2ccccc2O)=C1c1ccccc1 ... NO
3. O=C(Cc1ccc(O)cc1)OCCOC1=C(c2ccccc2)C(=O)OC1 ... NO
4. CCCCCCCC(=O)OCCOC1=C(c2ccccc2)C(=O)OC1 ... NO
5. O=C1OCC(OCCOC(=O)c2cccnc2)=C1c1ccccc1 ... NO

Ask: Does this molecule meet the criterion MIC50 < 20 µg/mL? COc1ccccc1C(=O)OCCOC1=C(c2ccccc2)C(=O)OC1
Reply: NO

Ask: Does this molecule meet the criterion MIC50 < 20 µg/mL? O=C1OCC(OCCOC(=O)c2ccc(F)cc2)=C1c1ccccc1
Reply: YES

###

# System: Staphylococcus aureus
# experimentSummary: Antibacterial activity against Staphylococcus aureus ATCC 25923 by MTT assay
# Assay type: functional
Attribute: MIC50
Unit µg/mL implied. Number only.

1) NC[C@H]1O[C@H](O[C@H]2[C@H](O)[C@@H](O[C@H]3O[C@H](CO)[C@@H](O)[C@H](N)[C@H]3O)[C@H](N)C[C@@H]2N)[C@H](O)[C@@H](O)[C@@H]1O [KANAMYCIN] ... 1.5

Ask: Entry under review: O=C1OCC(OCCOC(=O)c2ccc([N+](=O)[O-])cc2)=C1c1ccccc1 . Reported MIC50?
Reply: 24.5

Ask: Entry under review: CCCCCC(=O)OCCOC1=C(c2ccccc2)C(=O)OC1 . Reported MIC50?
Reply: 43

Ask: Entry under review: O=C(Cc1ccc(F)cc1)OCCOC1=C(c2ccccc2)C(=O)OC1 . Reported MIC50?
Reply: 16.5
